- assay text: Inhibition of SARS-CoV-1 PL protease using varying concentration of (Z)-Arg-Leu-Arg-Gly-Gly-4-methyl-coumaryl-7-amide as substrate by Dixon plot analysis
- Parameters: species or system Severe acute respiratory syndrome-related coronavirus
Entries annotated with measured Ki

{"query smiles": "Cc1ccc(CNC(=O)C(=O)O)cc1C(=O)N[C@H](C)c1cccc2ccccc12", "Ki (nM)": 180}
{"query smiles": "Cc1ccc(CNC(=O)c2ccc(C(C)(C)C)cc2)cc1C(=O)N[C@H](C)c1cccc2ccccc12", "Ki (nM)": 540}
{"query smiles": "Cc1ccc(CNC(=O)c2ccc(F)c(F)c2)cc1C(=O)N[C@H](C)c1cccc2ccccc12", "Ki (nM)": 280}
{"query smiles": "Cc1ccc(N)cc1C(=O)N[C@H](C)c1cccc2ccccc12", "Ki (nM)": 290}

---

- System: SARS-CoV-2
- assay text: Antiviral activity against SARS-CoV-2 JPN/TY/WK-521 infected in Vero E6 cells assessed as reduction in viral RNA level incubated for 3 days by RT-qPCR analysis
- Type: functional, organism-based
- protocol conditions: Severe acute respiratory syndrome coronavirus 2, JPN/TY/WK-521, Vero C1008, 72 h
Below: a set of entries, each annotated with reported EC50.

{"query smiles": "Cc1ccc(CNC(=O)CC(F)(F)F)cc1C(=O)N[C@H](C)c1cccc2ccccc12", "relation qualifier": "=", "EC50 (µM)": 40.7}
{"query smiles": "Cc1ccc(CNC(=O)c2cccc(F)c2F)cc1C(=O)N[C@H](C)c1cccc2ccccc12", "relation qualifier": "=", "EC50 (µM)": 52.3}
{"query smiles": "Cc1ccc(CNC(=O)c2ccc(F)cc2C(F)(F)F)cc1C(=O)N[C@H](C)c1cccc2ccccc12", "relation qualifier": ">", "EC50 (µM)": 100}
{"query smiles": "Cc1ccc(CNC(=O)c2cccc(F)c2)cc1C(=O)N[C@H](C)c1cccc2ccccc12", "relation qualifier": "=", "EC50 (µM)": 57.4}

---

- assay text: Inhibition of SARS-CoV-1 PL protease using (Z)-Arg-Leu-Arg-Gly-Gly-4-methyl-coumaryl-7-amide as substrate and varying concentration of […] by Lineweaver-burk plot analysis
- Parameters: species or system Severe acute respiratory syndrome-related coronavirus
Property: Ki; scope: individual molecules

{"query smiles": "Cc1ccc(N)cc1C(=O)N[C@H](C)c1cccc2ccccc12", "Ki": "120 nM"}
{"query smiles": "Cc1ccc(CNC(=O)C(=O)O)cc1C(=O)N[C@H](C)c1cccc2ccccc12", "Ki": "120 nM"}
{"query smiles": "Cc1ccc(CNC(=O)c2ccc(F)c(F)c2)cc1C(=O)N[C@H](C)c1cccc2ccccc12", "Ki": "160 nM"}
{"query smiles": "Cc1ccc(CNC(=O)c2ccc(C(C)(C)C)cc2)cc1C(=O)N[C@H](C)c1cccc2ccccc12", "Ki": "320 nM"}

---

- Test system: SARS-CoV-2
- assay text: Antiviral activity against SARS-CoV-2 JPN/TY/WK-521 infected in Vero E6 cells assessed as reduction in viral RNA level incubated for 3 days by RT-qPCR analysis
- Format: functional, organism-based
- protocol conditions: Severe acute respiratory syndrome coronavirus 2, JPN/TY/WK-521, Vero C1008, 72 h
Property: EC50; scope: individual compounds

{"query smiles": "Cc1ccc(CNC(=O)c2ccc(C(C)(C)C)cc2)cc1C(=O)N[C@H](C)c1cccc2ccccc12", "relation qualifier": "=", "EC50, µM": 7.3}
{"query smiles": "CC(=O)NCc1ccc(C)c(C(=O)N[C@H](C)c2cccc3ccccc23)c1", "relation qualifier": ">", "EC50, µM": 100}
{"query smiles": "Cc1ccc(CNC(=O)c2cccc(C(F)(F)F)c2C)cc1C(=O)N[C@H](C)c1cccc2ccccc12", "relation qualifier": ">", "EC50, µM": 100}
{"query smiles": "Cc1ccc(CNC(=O)c2ccccc2F)cc1C(=O)N[C@H](C)c1cccc2ccccc12", "relation qualifier": "=", "EC50, µM": 13.2}
{"query smiles": "Cc1ccc(CNC(=O)c2ccc([N+](=O)[O-])cc2)cc1C(=O)N[C@H](C)c1cccc2ccccc12", "relation qualifier": "=", "EC50, µM": 40.3}
{"query smiles": "Cc1ccccc1C(=O)NCc1ccc(C)c(C(=O)N[C@H](C)c2cccc3ccccc23)c1", "relation qualifier": "=", "EC50, µM": 15.1}
{"query smiles": "Cc1ccc(CNC(=O)c2cccc(C(F)(F)F)c2)cc1C(=O)N[C@H](C)c1cccc2ccccc12", "relation qualifier": "=", "EC50, µM": 15.7}
{"query smiles": "Cc1ccc(CNC(=O)c2cccc(C(F)(F)F)c2F)cc1C(=O)N[C@H](C)c1cccc2ccccc12", "relation qualifier": "=", "EC50, µM": 29.1}
{"query smiles": "Cc1ccc(CNC(=O)c2ccc(C(F)(F)F)cc2F)cc1C(=O)N[C@H](C)c1cccc2ccccc12", "relation qualifier": ">", "EC50, µM": 100}
{"query smiles": "Cc1ccc(CN)cc1C(=O)N[C@H](C)c1cccc2ccccc12", "relation qualifier": "=", "EC50, µM": 15.5}
{"query smiles": "Cc1ccc(CNC(=O)c2ccccc2C(F)(F)F)cc1C(=O)N[C@H](C)c1cccc2ccccc12", "relation qualifier": "=", "EC50, µM": 27.4}
{"query smiles": "Cc1ccc(CNC(=O)c2ccccc2)cc1C(=O)N[C@H](C)c1cccc2ccccc12", "relation qualifier": "=", "EC50, µM": 35.4}
{"query smiles": "Cc1ccc(CNC(=O)c2ccc(F)c(F)c2)cc1C(=O)N[C@H](C)c1cccc2ccccc12", "relation qualifier": "=", "EC50, µM": 3.8}
{"query smiles": "Cc1ccc(CNC(=O)c2cc(F)c(F)cc2F)cc1C(=O)N[C@H](C)c1cccc2ccccc12", "relation qualifier": ">", "EC50, µM": 100}
{"query smiles": "Cc1ccc(CNC(=O)C(F)(F)F)cc1C(=O)N[C@H](C)c1cccc2ccccc12", "relation qualifier": "=", "EC50, µM": 30.3}
{"query smiles": "Cc1ccc(CNC(=O)c2ccc(C(F)(F)F)c(F)c2)cc1C(=O)N[C@H](C)c1cccc2ccccc12", "relation qualifier": ">", "EC50, µM": 100}
{"query smiles": "Cc1cccc(C(=O)NCc2ccc(C)c(C(=O)N[C@H](C)c3cccc4ccccc34)c2)c1", "relation qualifier": "=", "EC50, µM": 44}
{"query smiles": "Cc1ccc(CNC(=O)C(C(F)(F)F)C(F)(F)F)cc1C(=O)N[C@H](C)c1cccc2ccccc12", "relation qualifier": ">", "EC50, µM": 100}
{"query smiles": "Cc1ccc(CNC(=O)c2ccc(F)cc2)cc1C(=O)N[C@H](C)c1cccc2ccccc12", "relation qualifier": "=", "EC50, µM": 25.7}
{"query smiles": "Cc1ccc(CNC(=O)c2ccc(F)cc2F)cc1C(=O)N[C@H](C)c1cccc2ccccc12", "relation qualifier": ">", "EC50, µM": 100}
{"query smiles": "Cc1ccc(CNC(=O)c2ccc([N+](=O)[O-])c(F)c2)cc1C(=O)N[C@H](C)c1cccc2ccccc12", "relation qualifier": "=", "EC50, µM": 76.9}
{"query smiles": "Cc1ccc(CNC(=O)c2cc(C(F)(F)F)cc(C(F)(F)F)c2)cc1C(=O)N[C@H](C)c1cccc2ccccc12", "relation qualifier": "=", "EC50, µM": 72.8}
{"query smiles": "Cc1ccc(CNC(=O)c2c(F)cc(F)cc2F)cc1C(=O)N[C@H](C)c1cccc2ccccc12", "relation qualifier": ">", "EC50, µM": 100}
{"query smiles": "Cc1ccc(CN)cc1C(=O)N[C@H](C)c1cccc2cc3ccccc3cc12", "relation qualifier": "=", "EC50, µM": 27.3}
{"query smiles": "Cc1ccc(CNC(=O)c2ccc(F)c(F)c2)cc1C(=O)N[C@H](C)c1cccc2cc3ccccc3cc12", "relation qualifier": ">", "EC50, µM": 100}
{"query smiles": "Cc1ccc(N)cc1C(=O)N[C@H](C)c1cccc2ccccc12", "relation qualifier": "=", "EC50, µM": 24.7}
{"query smiles": "CNCc1ccc(C)c(C(=O)N[C@H](C)c2cccc3ccccc23)c1", "relation qualifier": "=", "EC50, µM": 25.2}
{"query smiles": "Cc1ccc(CNC(=O)C(=O)O)cc1C(=O)N[C@H](C)c1cccc2cc3ccccc3cc12", "relation qualifier": ">", "EC50, µM": 100}
{"query smiles": "Cc1ccc(C(=O)NCc2ccc(C)c(C(=O)N[C@H](C)c3cccc4ccccc34)c2)cc1", "relation qualifier": ">", "EC50, µM": 100}
{"query smiles": "Cc1ccc(CNC(=O)c2ccccc2[N+](=O)[O-])cc1C(=O)N[C@H](C)c1cccc2ccccc12", "relation qualifier": "=", "EC50, µM": 18.3}
{"query smiles": "Cc1ccc(CNC(=O)C(N)=O)cc1C(=O)N[C@H](C)c1cccc2ccccc12", "relation qualifier": ">", "EC50, µM": 100}
{"query smiles": "CCOC(=O)C(=O)NCc1ccc(C)c(C(=O)N[C@H](C)c2cccc3ccccc23)c1", "relation qualifier": ">", "EC50, µM": 100}
{"query smiles": "Cc1ccc(CNC(=O)c2ccc(C(F)(F)F)cc2)cc1C(=O)N[C@H](C)c1cccc2ccccc12", "relation qualifier": "=", "EC50, µM": 18.7}
{"query smiles": "Cc1ccc(CNC(=O)OC(C)(C)C)cc1C(=O)N[C@H](C)c1cccc2cc3ccccc3cc12", "relation qualifier": ">", "EC50, µM": 100}
{"query smiles": "Cc1ccc(CNC(=O)C(=O)O)cc1C(=O)N[C@H](C)c1cccc2ccccc12", "relation qualifier": "=", "EC50, µM": 2.7}
{"query smiles": "Cc1ccc(CNC(=O)c2c(F)c(F)cc(F)c2F)cc1C(=O)N[C@H](C)c1cccc2ccccc12", "relation qualifier": "=", "EC50, µM": 44.8}
